All values here come from paper PMC8125178.

Molecular target: T1, BODIPY-β-annulus peptide (tomato bushy stunt virus, BODIPY-maleimide added by Michael addition to the thiol of the N-terminal Cys)
T1 construct: also called BODIPY-labelled β-annulus peptide; fluorescent-labelled β-annulus peptide; source: synthetic peptide (solid-phase Fmoc chemistry; labelled with BODIPY-maleimide; purified by reversed-phase HPLC)
T1 peptide: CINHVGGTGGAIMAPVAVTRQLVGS
Experiment: fluorescence correlation spectroscopy (FCS); 0.1 μM BODIPY-β-annulus peptide with 0~200 μM β-annulus peptide in 10 mM Tris-HCl buffer (pH 7.0) with 10 wt% PEG2000, 25 °C; ratio of the slow component fitted to the Hill equation
Settings: both partners purified
endpoint_label: pKd
Conceptually, pKd converts a concentration in mol/L into minus its log10.

Given the binder INHVGGTGGAIMAPVAVTRQLVGS (also called unmodified β-annulus peptide; source: synthetic peptide (solid-phase Fmoc chemistry, purified by reversed-phase HPLC)) [24-mer β-annulus peptide from tomato bushy stunt virus] , what is its reported pKd?
5.17
